# MEASUREMENT PROTOCOL: protein stability index of a GFP-peptide fusion (yeast GPS) (PSI 1-4); higher = more stable; sorted into four equal gates, so the index is relative within each strain
# CONDITION DESCRIPTION: ubr1∆

# MACROMOLECULE SEQUENCE, protein stability index
measured = [
    ("AAPSAADIKAVVESVGA [RPP2B]", 3.29),
    ("VMTYKGEVLGITRFGLS [RPO31]", 3.46),
    ("AGILRGYDIFLNVVLDD [SMX2]", 2.75),
    ("AHTASVGVVFGSGAANE [COR1]", 3.39),
    ("QIRACKDLKHIIYYKFN [PRP8]", 1.59),
    ("LVTKILPLKKNEIIGDR [YCG1]", 2.83),
    ("LGLLLPIAASTDLPIET [RPN1]", 2.17),
    ("LGAVAGLIPYPHHNQSP [RET1]", 2.94),
    ("ADAQIQRETYDSNESDD [YLR335W/NUP2]", 2.66),
    ("SEISSLKGKINNEMKSL [SMC1]", 3.18),
    ("SIKDTQNVGQGKLQRKE [BRN1]", 2.7),
    ("WDLSVEDALYLGKRSIL [PRE2]", 3.39),
    ("QQQQDLQQQQQVVTTVA [SNF6]", 1.54),
    ("PRDVIKGKDFEITAKEV [FAS1]", 3.36),
    ("VNRLLSVIPLKGRYAPE [RRP4]", 1.86),
    ("GTGKPEAIHDMFTYSQE [RPN2]", 2.72),
    ("EKPFNENRFQDTLLLLP [POP4]", 2.72),
    ("IRAIRKVISEILTKEVQ [RPS1A]", 1.97),
    ("LKQEGAANKTVVVVGTV [RPL18A]", 3.46),
    ("FDSELIHLKQKLSESLD [SMC3]", 3.24),
    ("LSGSISERIVDCIIRLP [FAS1]", 1.85),
    ("NLEESSKLDIYTQQQAL [RET1]", 2.94),
    ("TSRTIVRNVKGPVREND [RPS28A]", 3.27),
    ("RRVYNRVLETTLVEFET [BRN1]", 1.7),
    ("MALKFVSIKFTNAAFPF [ECM29]", 1.82),
    ("TQLQICLDQMTEQFCAT [SRB7]", 2.52),
    ("NDEPSHKKIKVAQPDSL [SIR2]", 3.19),
    ("IPNRRFTLWWSPTINRA [PRP8]", 2.29),
    ("HLSKSPADRPQGRRNSR [SIR4]", 2.78),
    ("TSPFGGARPGRVARRNA [RPS9A]", 3.28),
    ("SEPIKEIIDNWEKYEQS [FAS1]", 2.96),
]

====

# MEASUREMENT PROTOCOL: protein stability index of a GFP-peptide fusion (yeast GPS) (PSI 1-4); higher = more stable; sorted into four equal gates, so the index is relative within each strain
# CONDITION DESCRIPTION: ubr1∆
Measured protein stability index, listed per entry for reference.

# MACROMOLECULE SEQUENCE, protein stability index
data = [
    ("KRKWSYVLYAKIVVLSR [RRP43]", 2.21),
    ("SKQDLIHSLIPVAKWFV [SIN4]", 2.78),
    ("ARDLLTRDEKDPKRLFE [RPS9A]", 3.62),
    ("PNSERETDHANTENNDP [IRR1]", 2.88),
    ("EKIWFAISKENLCGDIS [SIR3]", 1.91),
    ("TKPGVYYVPYSKLMPVL [RPC82]", 1.96),
    ("LDPYERAIYSYLSGAIP [YDL116W/NUP84]", 3.11),
    ("FLKYYGAHKFLDTYLPE [SIR2]", 1.67),
    ("FSEGTSADREIQRTLME [RPT4]", 3.1),
    ("LLRQKIEQCKHPLHELI [ISW2]", 1.48),
    ("GYDIFLNVVLDDAMEIN [SMX2]", 2.99),
    ("TVPRIVQLLSKSHNAHV [RPN2]", 1.98),
    ("SKQQAKGAFQKVAATSR [RPL24A]", 2.8),
    ("IVIDVDYNKKQDRIQDV [MED1]", 3.09),
]

====

# MEASUREMENT PROTOCOL: protein stability index of a GFP-peptide fusion (yeast GPS) (PSI 1-4); higher = more stable; sorted into four equal gates, so the index is relative within each strain
# CONDITION DESCRIPTION: ubr1∆

# MACROMOLECULE SEQUENCE, protein stability index
measured = [
    ("PPPPPPPGYEIEELDNP [PRP8]", 3.03),
    ("RGNKVNKQIEILTDLVN [ITC1]", 2.97),
    ("TSPIDIREKVAKQALDL [SNF2]", 2.69),
    ("NVLKAPFIKSESKPFSS [SIR4]", 3.03),
    ("KRITQITIEPGVDVEVV [RPS20]", 2.6),
    ("KSSDSNDSNPSFSFSIP [YLR335W/NUP2]", 2.81),
    ("NDLGKFIPNKQLNCVID [RPN7]", 3.05),
    ("KTTDHLFDAAFYMKKDA [RPO31]", 3.05),
    ("IKNISNRVGLTLDNIDD [ARP9]", 3.32),
    ("MQEKAAHIAKNLINLSI [YCS4]", 1.46),
    ("QTKENKRCVGVILGDAN [RPN8]", 2.73),
    ("LLAQLNGTVNNNSALSN [RPT3]", 2.34),
    ("EAASSNKSFIVDQGQIY [ITC1]", 2.93),
    ("VAIGNTYGFLTPNLWAE [RPS2]", 2.43),
    ("STAFVPTIEYVQCPTVI [ARP9]", 1.88),
]

====

# MEASUREMENT PROTOCOL: protein stability index of a GFP-peptide fusion (yeast GPS) (PSI 1-4); higher = more stable; sorted into four equal gates, so the index is relative within each strain
# CONDITION DESCRIPTION: ubr1∆
Is protein stability index at least 2? Then 1. If not, -1.

# MACROMOLECULE SEQUENCE, CAT
rows = [
    ("PYGSFHQQQLQQPHYIQ [DSN1]", 1),
    ("ATVPSAPYRKQIISNAH [YAR002W/NUP60]", 1),
    ("MAKDNLTNLLSQLNIQL [SRP72]", 1),
    ("QGDGLLTKLQKYGAAVR [RPN7]", 1),
    ("FYMLNAGIRPKFILALN [RPN1]", -1),
    ("YTRYLDRIYMLFHFEED [PRP8]", -1),
    ("TEHVRQNAKLLANLIRD [RRP6]", -1),
    ("YYGCLENDHERGFFHLN [CSN12]", 1),
    ("FMRQNLEWNMANLLFKK [RPC82]", 1),
    ("KPMTAYARADTHFLLNI [RRP6]", -1),
    ("KSIMDGIHDGHIKKLLH [FAS1]", -1),
    ("FAAIPEQGIELEHIDSK [FAS2]", 1),
    ("VPLIKVADAKQLGEWAG [RPS12]", 1),
    ("SVKGKVVIDAFRLIDTG [RPN11]", -1),
]

====

# MEASUREMENT PROTOCOL: protein stability index of a GFP-peptide fusion (yeast GPS) (PSI 1-4); higher = more stable; sorted into four equal gates, so the index is relative within each strain
# CONDITION DESCRIPTION: ubr1∆
Measured protein stability index, listed per entry for reference.
MEASURED PARAMETER: protein stability index

# MACROMOLECULE SEQUENCE, MEASURED PARAMETER, READING
measured = [
    ("SNIELAFSSVEHIIRDV [COB]", "protein stability index", 2.73),
    ("FKLSSESVIEQIVKYAR [RPS13]", "protein stability index", 2.72),
    ("QFNKILPEPTEGFAADD [FAS1]", "protein stability index", 2.77),
    ("SAIRKCVRVQLIKNGKK [RPS23A]", "protein stability index", 3.19),
    ("GTLEGHNGWVTSLATSA [ASC1]", "protein stability index", 1.67),
    ("VKKILPLYARYINVNPQ [ECM29]", "protein stability index", 2.72),
    ("GSVSEETELFEPGVLNT [ECM29]", "protein stability index", 2.67),
    ("YSRILKSMGRKCFDDIE [YCG1]", "protein stability index", 2.16),
    ("TGAGVSTSLGIPDFRSS [SIR2]", "protein stability index", 2.86),
    ("SSKKVFSSNLSYANHLE [YOR098C/NUP1]", "protein stability index", 2.48),
    ("TKIGAKRIHSVRTRGGN [RPS8A]", "protein stability index", 2.72),
    ("KDSVTECSKDMKEDGLS [SIR4]", "protein stability index", 3.32),
    ("ALNMLPSEILHLILDKL [GRR1]", "protein stability index", 2.03),
    ("CSFAVTKSSLNDLDYDL [YML103C/NUP188]", "protein stability index", 3.1),
]
